- Test system: NCI-H23 lung
- Test Protocol: NCI-60 one-dose screen, 48 h (100 = growth as untreated, 0 = no growth, -100 = all killed)
- Particulars: 10 µM unless noted
Compounds without any hit were thinned out: in the full panel of roughly 83,000, 20% have a hit.
Could you mark each record Condition met if its growth falls strictly under 90%, and Condition not met if it equals or exceeds it?

I'd appreciate it if you could check whether "COc1ccc2c(c1)c(-c1nc(-c3c[nH]c4ncccc34)cs1)cn2CCNC(=O)OC(C)(C)C" has growth smaller than 90%.
Condition met

Please state whether growth is below 90% for "C=C1CC[C@@H](C(=O)OC)Cc2nc(C)ccc21"
Condition not met

Does the reported growth of the following molecule sit strictly below 90%? "C=C(C)[C@@H]1CC[C@]2(C)[C@H](CC=C3[C@@H]4CC(C)(C)CC[C@]4(C=O)CC[C@]32C)[C@@]1(C)CCCN"
Condition met

Would you kindly verify if growth of CCN1CCN(C(=O)[C@@]2(C)CC[C@]3(C)CC[C@]4(C)C(=CC(=O)[C@@H]5[C@@]6(C)CC[C@H](OC7C[C@@H](O)[C@@H](O)C(C)O7)C(C)(C)[C@@H]6CC[C@]54C)[C@@H]3C2)CC1 (some centres undefined) is strictly less than 90%?
Condition met

is_below(growth, 90%) for "N=C(N)c1ccc(S(N)(=O)=O)cc1" ?
Condition not met

Confirm or reject: growth of "COc1ccc2c(c1)c(-c1nc(-c3cn(C)c4ncccc34)cs1)cn2CCN" lies strictly below 90%
Condition met

Could you please tell me whether growth recorded for "CCOc1ccc(NC(=O)c2ccccc2-c2ccccc2C(=O)O)cc1" is less than 90%?
Condition not met

Bench note: check whether "c1ccc(-c2nc(Nc3ccc(-c4nc5ccccc5[nH]4)cc3)nc(N3CCOCC3)n2)cc1" shows growth below 90%
Condition met

# strict comparison: is reported growth < 90%? input = "COC(=O)CCCCCn1c2ccccc2c2c3c(c4c5ccccc5[nH]c4c21)C(=O)N(O)C3=O"
Condition met

Lab note: confirm whether the reported growth for this molecule is below 90%, equality not counting. molecule: "COC(c1ccccc1)(c1ccccc1)c1ccccc1"
Condition not met

Please let me know if "CCN(CC)c1ccc(/C=C/c2cc(C)c3ccccc3n2)cc1" shows growth below 90%.
Condition met

Threshold test, growth < 90%: "COc1ccc(C2=NN(c3nc(-c4ccc(OC)cc4)c(C#N)c(=O)n3C)C(=O)CC2)cc1"
Condition not met

Report whether reported growth is lower than 90% (strictly) for "COc1ccccc1-n1cnc(N)c1C(=O)c1cc(OC)c(OC)c(OC)c1"
Condition met

Determine if "S=c1[nH]nc2ccccn12" shows growth strictly lower than 90%.
Condition not met

In the record for N#CC1=C(N)Oc2c(sc3c(F)cccc23)C1c1ccc(Cl)cc1 (centres undefined) , is growth less than 90%?
Condition met

Does this molecule meet the criterion growth < 90%? "O=C(O)c1cccc2c1-c1ccc(Cl)cc1C2"
Condition not met

Determine whether this molecule shows growth lower than 90% (ties excluded): COc1ccc2c(c1)C(Br)=C(CCO)C2c1ccccc1 (centres undefined)
Condition not met

I wonder whether "Cc1ccc(S(=O)(=O)Nc2ccc(-c3cc(-c4cccc(F)c4)c(C#N)c(N)n3)cc2)cc1" has growth below 90%. Can you tell?
Condition met

Answer whether the molecule "O=C(N/N=C\c1c(O)ccc2ccccc12)C1CC1" has growth strictly less than 90%
Condition met

Input "COc1cccc(-c2nn(-c3ccccc3)cc2-c2ccnc(NCCNS(=O)(=O)c3cccc(F)c3)c2)c1" ; condition: growth strictly below 90%. Does it hold?
Condition met

Input "CC1(C)NCCC[C@]2(C)[C@H]3CC[C@@H]4[C@H]5[C@H](C(=O)/C=C/c6ccccn6)CC[C@]5(CO)CC[C@@]4(C)[C@]3(C)CC[C@@H]12" ; condition: growth strictly below 90%. Does it hold?
Condition met

Answer whether the molecule "c1ccc2[nH]c(-c3ccc(Nc4nc(N5CCCCC5)nc(N5CCOCC5)n4)cc3)nc2c1" has growth strictly less than 90%
Condition met

Quick check: growth of "COc1cc2nc(Cl)nc(Nc3cccc(C(=O)/C=C/c4ccccc4)c3)c2cc1OC" under 90%?
Condition met

Say whether its growth is strictly beneath 90%. Entry: COc1ccc(C2NC(=O)Nc3ccccc32)c(OC)c1 (centres undefined)
Condition not met

Lab note: confirm whether the reported growth for this molecule is below 90%, equality not counting. molecule: "Cn1c2c(c3ccc(Cl)cc31)-n1cccc1C2=O"
Condition not met

Determine if "Cn1cc(-c2csc(-c3cn(C(=O)OC(C)(C)C)c4ccccc34)n2)c2cccnc21" shows growth strictly lower than 90%.
Condition met

growth under 90%? Item: "CN(C)c1ccc(N=C2C=CC(=O)C=C2)cc1"
Condition met

Dear colleague, could you confirm whether growth of "CCC(=O)c1c(C)[nH]c(C)c1C" falls below 90%? Thanks.
Condition not met

Strictly below 90%: is that where growth of "Cc1csc(Nc2nc(-c3ccc(Cl)cc3)nc(C(Cl)(Cl)Cl)n2)n1" sits?
Condition not met

Please determine if "OCCNc1nc(Nc2ccc(Cl)c(Cl)c2)nc2ccccc12" is below 90% in terms of growth.
Condition met

# check: growth < 90% for "Oc1cc(/C=C/c2nc(N3CCOCC3)c3cc(Cl)c(Cl)cc3n2)cc(O)c1O"
Condition not met

Please state whether growth is below 90% for "COc1cccc(-c2nn(-c3ccccc3)cc2-c2ccnc(NCCNS(=O)(=O)c3ccccc3)c2)c1"
Condition met
